Ref: patent US7091311

target.or.system: T1, soluble TPO-R (UniProt P40238 26-491)
T1 construct: extracellular domain; Immobilized through anti-HPAP antibody Ab179; also called thrombopoietin receptor; c-mpl
T1 sequence (P40238 26-491): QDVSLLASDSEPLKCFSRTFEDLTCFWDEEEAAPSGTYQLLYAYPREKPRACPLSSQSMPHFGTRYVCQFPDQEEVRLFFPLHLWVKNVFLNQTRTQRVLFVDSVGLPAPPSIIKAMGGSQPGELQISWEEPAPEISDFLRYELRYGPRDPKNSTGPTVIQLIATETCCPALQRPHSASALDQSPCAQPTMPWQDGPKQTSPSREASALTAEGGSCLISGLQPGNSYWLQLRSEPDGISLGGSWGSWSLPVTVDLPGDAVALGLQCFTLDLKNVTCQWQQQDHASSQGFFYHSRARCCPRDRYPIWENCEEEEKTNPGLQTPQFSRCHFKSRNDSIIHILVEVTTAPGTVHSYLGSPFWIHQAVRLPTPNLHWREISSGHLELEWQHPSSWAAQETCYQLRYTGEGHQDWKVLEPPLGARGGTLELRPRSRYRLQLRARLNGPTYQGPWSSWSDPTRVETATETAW
assay.remarks: competition ELISA vs MBP-TPO156
Where no end group is shown, it is not given here.
recorded.endpoint: IC50

Problem: Which IC50 value is on record for ADGPTLREWISFC (also: further groups not given here, structure printed only as a drawing) [[drawing CHEM-US-00004] (SEQ ID NO:173)] ?
Solution: ≤ 500 nM
